Reference for the values: PubChem BioAssay (NCI)

# Test system: SW-620 colon
# EXPERIMENT: NCI tumour cell line growth inhibition, 48 h
The reader will find reported TGI values listed item by item below.

[
  {
    "COMPOUND": "COC(=O)C1=C(c2ccc(Cl)cc2)C(O)N=C(NN)N1 (centres undefined)",
    "TGI": "> 100 µM"
  },
  {
    "COMPOUND": "COC1OC(C(C)O)C2OC(C)(C)OC12 (centres undefined)",
    "TGI": "> 100 µM"
  },
  {
    "COMPOUND": "CC(C)c1cccc(C(C)C)c1NC(=O)C(=O)C1SC(=S)NC1=O (centres undefined)",
    "TGI": "> 100 µM"
  },
  {
    "COMPOUND": "NCCC1([N+](=O)[O-])CCNCC1",
    "TGI": "> 100 µM"
  },
  {
    "COMPOUND": "O=C(O)CCc1nc2cc3ccccc3cc2[nH]c1=O",
    "TGI": "> 100 µM"
  },
  {
    "COMPOUND": "NS(=O)(=O)c1ccc(N2N=C(c3cccs3)CC2c2ccccc2O)cc1 (centres undefined)",
    "TGI": "4.83 µM"
  },
  {
    "COMPOUND": "CSc1nc(C)c(CCCl)c(Cl)n1",
    "TGI": "> 100 µM"
  },
  {
    "COMPOUND": "CCCCCCCCCCCCCCCCCc1nnc(N)o1",
    "TGI": "> 100 µM"
  },
  {
    "COMPOUND": "CCOC(=O)Oc1ccc2c(c1)c(=O)c1c(NCCCN(CC)CC)ccc3nnn2c31",
    "TGI": "16.2 µM"
  },
  {
    "COMPOUND": "CC#Cc1c(C#CC)c(OC)c2c(c1OC)C(=O)c1ccccc1C2=O",
    "TGI": "> 100 µM"
  },
  {
    "COMPOUND": "CC/C(=C\\c1ccc(Cl)c(Cl)c1)[N+](=O)[O-]",
    "TGI": "> 100 µM"
  },
  {
    "COMPOUND": "COC(=O)CCC1(O)C=CC(=O)C=C1",
    "TGI": "> 100 µM"
  },
  {
    "COMPOUND": "O=C(CC(=O)C1CCOC1=O)C(=O)Nc1ccc(Cl)cc1 (centres undefined)",
    "TGI": "> 100 µM"
  },
  {
    "COMPOUND": "CCOC(=O)C1Oc2ccc([N+](=O)[O-])cc2C1(C)O (centres undefined)",
    "TGI": "> 100 µM"
  },
  {
    "COMPOUND": "CNc1ncc2cc(Oc3ccc(F)cc3F)c(=O)n(C)c2n1",
    "TGI": "> 25 µM"
  },
  {
    "COMPOUND": "Cc1cc(C(O)CNC(C)CCn2cnc3c2c(=O)n(C)c(=O)n3C)ccc1O (centres undefined)",
    "TGI": "> 100 µM"
  },
  {
    "COMPOUND": "CCc1n[nH]c(=S)n1/N=C\\c1ccc(-c2ccccc2[N+](=O)[O-])o1",
    "TGI": "> 100 µM"
  },
  {
    "COMPOUND": "CCOC(=O)/C=C1\\Oc2ccccc2C1(C)O (centres undefined)",
    "TGI": "> 100 µM"
  },
  {
    "COMPOUND": "CC1=C(C(=O)NC(C)(C)C)CC(C(=O)NC(C)(C)C)C(C)N1 (centres undefined)",
    "TGI": "> 100 µM"
  },
  {
    "COMPOUND": "COC(=O)C1=NN2c3ccccc3CN([C@@H](C)c3ccccc3)C(=O)[C@H]2[C@@H]1C",
    "TGI": "> 100 µM"
  },
  {
    "COMPOUND": "c1ccc(/C(=N\\Nc2ccc3ccccc3n2)c2ccccn2)cc1",
    "TGI": "15.3 µM"
  },
  {
    "COMPOUND": "COc1nc(C)nc2c1ncn2Cc1ccccc1",
    "TGI": "> 100 µM"
  },
  {
    "COMPOUND": "COc1ccc2c(c1OC)C(=O)O[C@@H]2[C@H]1c2c(c(Br)c3c(c2OC)OCO3)CCN1C",
    "TGI": "> 100 µM"
  },
  {
    "COMPOUND": "Cc1cccc(N=C2NC(=O)C(CC(=O)Nc3ccccc3Cl)S2)c1 (centres undefined)",
    "TGI": "> 100 µM"
  }
]

----------
# Test system: SR leukemia
# EXPERIMENT: NCI tumour cell line growth inhibition, 48 h

[
  {
    "COMPOUND": "CCOC(=O)/C=C1\\Oc2ccccc2C1(C)O (stereo not drawn)",
    "SYSTEM": "SR leukemia",
    "TGI": "> 100 µM"
  },
  {
    "COMPOUND": "Cn1ncnc1C1c2n[nH]c(=O)c3cc(F)cc(c23)NC1c1ccc(F)cc1 (stereo not drawn)",
    "SYSTEM": "SR leukemia",
    "TGI": "> 62.5 µM"
  },
  {
    "COMPOUND": "COC(=O)CCC1(O)C=CC(=O)C=C1",
    "SYSTEM": "SR leukemia",
    "TGI": "> 100 µM"
  },
  {
    "COMPOUND": "CCSC(=O)C1(C)OC2CCCCC2C1=O (stereo not drawn)",
    "SYSTEM": "SR leukemia",
    "TGI": "> 100 µM"
  },
  {
    "COMPOUND": "CCC(=O)c1c(C(F)(F)F)n([O-])c2ccccc2[n+]1=O",
    "SYSTEM": "SR leukemia",
    "TGI": "10.3 µM"
  },
  {
    "COMPOUND": "Cc1ccc(-n2cc(-c3ccc(Cl)cc3)c3c2N=CN2NC(c4cccs4)=NC32)cc1 (stereo not drawn)",
    "SYSTEM": "SR leukemia",
    "TGI": "> 100 µM"
  },
  {
    "COMPOUND": "Cc1c(C(N)=O)sc2c1c(=O)n(Cc1ccccc1)c1nnc(S(=O)(=O)CC(=O)Nc3ccc(Cl)cc3)n21",
    "SYSTEM": "SR leukemia",
    "TGI": "30.3 µM"
  },
  {
    "COMPOUND": "O=C(O)CCc1nc2cc3ccccc3cc2[nH]c1=O",
    "SYSTEM": "SR leukemia",
    "TGI": "> 100 µM"
  },
  {
    "COMPOUND": "CCCOP(=S)(N1CC1)N1CC1",
    "SYSTEM": "SR leukemia",
    "TGI": "> 100 µM"
  },
  {
    "COMPOUND": "N#CCN(Cc1ccccc1)[C@@H]1CCC[C@]1(O)C#Cc1ccc2c(c1)OCO2",
    "SYSTEM": "SR leukemia",
    "TGI": "40.9 µM"
  },
  {
    "COMPOUND": "COc1ccc(OC)c(/C=N/N=C2\\C(=O)Nc3c(Cl)cc(Cl)cc32)c1",
    "SYSTEM": "SR leukemia",
    "TGI": "> 100 µM"
  },
  {
    "COMPOUND": "CC(=O)/C(=C(/Br)I)c1ccccc1",
    "SYSTEM": "SR leukemia",
    "TGI": "13.5 µM"
  },
  {
    "COMPOUND": "O=C1COCCN1c1ccc(NCc2cn(C(=O)c3ccc(Cl)cc3)c3ccccc23)cc1",
    "SYSTEM": "SR leukemia",
    "TGI": "> 100 µM"
  }
]

----------
# System: OVCAR-8 ovarian
# EXPERIMENT: NCI tumour cell line growth inhibition, 48 h

[
  {
    "COMPOUND": "NCCCCCNOCCCN",
    "TGI": "> 100 µM"
  },
  {
    "COMPOUND": "C=C(CC)C[C@@H]1C[C@]2(C(=O)OC)c3[nH]c4ccccc4c3CCN2C1=O",
    "TGI": "> 100 µM"
  },
  {
    "COMPOUND": "CCCCCCC(=O)OC[n+]1cccc(-c2c(COC(=O)NC(C)C)c(COC(=O)NC(C)C)c3n2CCC3)c1",
    "TGI": "> 100 µM"
  },
  {
    "COMPOUND": "CCCc1cc(-c2ccc(-c3cc(CCC)c(C=O)[nH]3)s2)[nH]c1C=O",
    "TGI": "> 100 µM"
  },
  {
    "COMPOUND": "COc1cc2nncc(SCc3ccc(Cl)c(Cl)c3)c2cc1OC",
    "TGI": "> 100 µM"
  },
  {
    "COMPOUND": "CCc1c2c(nc3ccc(OCc4ccc(B5OC(C)(C)C(C)(C)O5)cc4)cc13)-c1cc3c(c(=O)n1C2)COC(=O)[C@]3(O)CC",
    "TGI": "> 100 µM"
  },
  {
    "COMPOUND": "CC(C)OP(=O)(OC(C)C)C(Nc1cccc(C(F)(F)F)c1)c1ccccc1 (configuration not stated)",
    "TGI": "> 100 µM"
  }
]
